Molecular target: HIV-1 NL4-3 Env on infected cells (HIV-1 group M subtype B, NL4-3 (pNL4-3 …, strain))

{"BINDER": "c13160 (antibody, V domains shown) VH: QLHLQESGPGLVKPSETLFLTCTVSGGSMSSSSYYWVWIRQPPRGRDWSRIGSIYYTGSTLTTTHPWRVESLLSVDTSKNQFSLKMNSVTAADTARYYCASSGLYAFWGQGILVPVSS VL: DAVVTQSPLVLPVTLGQPASISCRSNQSLLFGEGNTYLNWFQQRPGQSPRRLIHNISKRDSGVPDRFSGSGSGTDFTLEISRVEAEDVGVYYCMQGIHSPPTWTFGQGTKVEIK", "binding result": "binds"}
{"BINDER": "c10819 (antibody, V domains shown) VH: EMRLEESGGALVKPGGSLRLSCVASGFKLSEWSLMWVRQAPGKGLQWVSSISLNQDYISYAGSVRGRFDVFRDRTQTSLLLNMNKLKTEDTGIYFCARVHAWRYFDWVNRRSPVEKVLSIDLWGRGTLVIVSS VL: SGATQPPSVSVSKGETARITCSGVELSSQYVSWYRQRPGQSPVLVMFHNNSRASRIPERFSASDSGDTATLTIAGAQDVDEAEYYCQTWDSKNYVTFGGGTKLTVL", "binding result": "binds"}
{"BINDER": "c22674 (antibody, V domains shown) VH: QVQLVQSGPEVKKPGTSVKVSCKASGYTFSNYAICWVRQAPGQGLEWVGATSAYNDETSYAQKFQGRVTVTRDSSTSTAYLELRSLRSEDSAVYYCARGGYYESSGSDASDYYAMDVWGQGTTVTVSS VL: SYELTQPPSVSVSLGQMARITCSGDALSKKYVYWYQQKPGQVPVLVMYQDTERPSGIPERFSGSTSGTIVTLIIGGVQAEDEADYFCLSADDSGTYVVFGGGTKLTVL", "binding result": "binds"}
